Test: Human HepG2 cell viability assay in 384 well format
Assay type: toxicity, cell-based
Design: dose 125 nL, time 70.5 hour; concentration not given beside the values
Experimental setup: HepG2 cells, read-out: Inhibition
Would you kindly list cytotoxicity at 70.5 h for each of these compounds?
Answers are plain numbers, in %.

Compound	Scale unit	cytotoxicity at 70.5 h
O=S(=O)(C1CC1)N1C[C@@H]2CN(Cc3ccoc3)CCO[C@@H]2C1	%	-15.4

Go through the items and report each one's cytotoxicity at 70.5 h.
1. CCn1nc(C)cc1C(=O)N1C[C@@H]2C[C@@H](c3nc(C)cs3)O[C@@H]2C1
2. CNC(=O)[C@@H]1C[C@@H](NC(=O)Cc2nonc2C)CN1Cc1sccc1C
3. CNC(=O)Nc1cnc2cc(Cl)ccc2c1O
4. CC(C)(C)CN(CCC#N)C(=O)c1cccc(CC#N)c1

-2.46
1.29
10
-3.08

Go through the items and report each one's cytotoxicity at 70.5 h.
1. O=C(NCc1ccccn1)[C@H]1COC[C@H]2CN(Cc3ccoc3)C[C@H]21
2. CCn1ncc(C(=O)N2CCCN(CCCc3ccccc3)CC2)c1C

[-2.29, -2.97]

Go through the items and report each one's cytotoxicity at 70.5 h.
1. CCOC(=O)N1CCN(c2nc(NC)c3ccccc3n2)CC1
2. COc1c(CNCCNC(=O)c2ccc(C)cc2)c(C)nn1C
3. COc1ccccc1OC1CCN(c2nc(N)nc3[nH]cnc23)CC1

-15.5
8.52
2.92

* * *

Test: Human HepG2 cell viability assay in 384 well format
Format: toxicity, cell-based
Parameters: dose 125 nL, time 70.5 hour; concentration not given beside the values
Experimental setup: HepG2 cells, read-out: Inhibition
Mark Met for cytotoxicity at 70.5 h under -10%, Not met if at or over.

Would you please look over these solved cases?
Compound	Group
CC1(C)OC(=O)N(CCCOc2ccc(F)cc2)C1=O	Met
NC(=O)c1cc(NC(=O)N2CCOCC2)ccc1F	Not met
COc1cc(C(=O)NCC2CCCO2)nc2c(C)cc(F)cc12 (configuration not stated)	Met
CCc1ncc(C(=O)NC(C)(C)C(=O)OC)s1	Not met
Cc1nc2n(n1)CC(NCC(=O)NCCC1=CCCCC1)CC2 (configuration not stated)	Not met

Determine if CC(C)(C)NC(=O)c1ccc(COCC(F)(F)F)o1 shows cytotoxicity at 70.5 h strictly lower than -10%. Not met

Determine if CC(C)n1ccnc1CN1CCCN(C(=O)c2cc(Cl)c[nH]2)CC1 shows cytotoxicity at 70.5 h strictly lower than -10%. Not met

Determine if Cc1ncc2c(c1CNC(=O)C1(c3ccc(F)cc3)CC1)CCNC2 shows cytotoxicity at 70.5 h strictly lower than -10%. Not met

Determine if Cc1ncncc1C(=O)N1CCCN(Cc2ncc(Cl)n2C)CC1 shows cytotoxicity at 70.5 h strictly lower than -10%. Not met

* * *

Test: Human HepG2 cell viability assay in 384 well format
Type: toxicity, cell-based
Parameters: dose 125 nL, time 70.5 hour; concentration not given beside the values
Experimental setup: HepG2 cells, read-out: Inhibition
Property: cytotoxicity at 70.5 h (%)
One number for each entry, in %.

Worked set:
Compound	Property	Scale unit	Value reported
NCC1CCCN(c2nc(-c3ccccc3)nc3c2CCNCC3)C1 (stereo not drawn)	cytotoxicity at 70.5 h	%	5.19
CC(=O)N1CCO[C@@H]2CN(S(=O)(=O)c3ccc(C)cc3)CC[C@@H]2C1	cytotoxicity at 70.5 h	%	11.2
O=C(c1ccsc1)N1C[C@@H]2C[C@@H](c3nnc(C4CC4)o3)O[C@@H]2C1	cytotoxicity at 70.5 h	%	-8.35

Go through the items and report each one's cytotoxicity at 70.5 h.
1. CCCn1cnc(S(=O)(=O)Nc2cccnc2-n2cccn2)c1
2. c1cnc(N2CCOCC3(CN(Cc4nccs4)CCO3)C2)nc1 (stereo not drawn)
3. C[C@H]1C[C@H]2CN(S(=O)(=O)c3ccc(F)cc3)CC[C@H]2O1

1: 19.8; 2: -2.26; 3: 13.7

Go through the items and report each one's cytotoxicity at 70.5 h.
1. Cc1nc(NCc2cccnc2)cc(C2COCCN2)n1 (stereo not drawn)
2. CNC(=O)CN1CCO[C@H]2CN(C(=O)c3ccncc3F)C[C@H]21
3. Cn1nc(Br)c2c(NCCSCCCO)ncnc21
4. Cc1nn(C)c(N(C)C)c1CNC1CCOc2c(F)cccc21 (stereo not drawn)
5. COc1ccc(C(C)NCc2ccsc2)cc1Cn1cccn1 (stereo not drawn)
6. CC(=O)N1CCN(CCNC(=O)c2nc3ccccc3c(=O)[nH]2)CC1
7. N#Cc1cc(NC(=O)c2cc[nH]n2)ccc1N1CCC(O)CC1
8. CCn1c(C)cc(C(=O)N2C[C@@H](C(=O)O)[C@H](c3ccccc3)C2)c1C

1: -5.63; 2: -3.77; 3: -10.5; 4: 13.3; 5: -3.16; 6: -7.43; 7: 9.29; 8: -2.74

Go through the items and report each one's cytotoxicity at 70.5 h.
1. Cc1ccc(-c2cnnc(N3CCCC3c3nccs3)n2)o1 (stereo not drawn)
2. CC(=O)NCCNC(=O)CN1CCOC(Cn2cc(C)cn2)C1 (stereo not drawn)

-7.57
-5.91
